Provenance of the data: the supplement of paper PMC6757056

B1: library; a variant is named by its letters at N, in order (parent)
chain: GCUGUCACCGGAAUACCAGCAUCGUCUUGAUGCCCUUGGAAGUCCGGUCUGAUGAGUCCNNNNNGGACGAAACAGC

variants of: B1; experiment: normalized RNA/DNA level without ligand (relative to sTRSVctl = 100) (log10 (% of sTRSVctl)); higher = less ribozyme self-cleavage, higher mRNA level; conditions: HEK293T, reporter: mCherry (pCS4076), ligand present: no
RESULT_TYPE: normalized RNA/DNA level without ligand (log10)
Would you mind answering with just the numeric figure?

CGAUU ... 1.51
UUGCG ... 1.82
UCAAC ... 1.79
UUGCU ... 1.91
ACUUA ... 1.78

**Query** Data request, read-out normalized RNA/DNA level without ligand (log10), for "AACCG"
**Result** 1.89

**Query** What does the data say about its normalized RNA/DNA level without ligand (log10)? Entry: "CCGCA"
**Result** 1.83

**Query** // lookup normalized RNA/DNA level without ligand (log10) for "CGCAU"
**Result** 1.68

**Query** Tell me the measured normalized RNA/DNA level without ligand (log10) of "UGAUA" , please.
**Result** 1.42

**Query** Please report the recorded normalized RNA/DNA level without ligand (log10) for "AAGAU" .
**Result** 1.69
